Reference source for all entries: ChEMBL document CHEMBL1201862

System: CAKI-1
experiment: NCI tumour cell line growth inhibition, 48 h
Active and inactive are the calls of the source. Cut-off read from the data, not from the text of the source: active = GI50 up to about 1.1 µM and inactive = higher.
Just give me one of these, please: active, inactive

[[record]]
compound = "C/C=C/C(=O)N1C(=O)OC[C@@H]1c1ccccc1"
studytarget = "CAKI-1"
assignedlabel = "inactive"

[[record]]
compound = "O=C(/C=C/c1ccc(O)cc1)c1ccc2c(c1)OCO2"
studytarget = "CAKI-1"
assignedlabel = "inactive"

[[record]]
compound = "COc1cc2c(cc1OC)C(OC)N(C)c1c-2ccc2cc3c(cc12)OCO3 (centres undefined)"
studytarget = "CAKI-1"
assignedlabel = "inactive"

[[record]]
compound = "O=C(OC1CN2CCC1CC2)N(c1ccccc1)c1ccccc1 (centres undefined)"
studytarget = "CAKI-1"
assignedlabel = "inactive"

[[record]]
compound = "N#CC(C#N)=CNC(=S)c1ccncc1"
studytarget = "CAKI-1"
assignedlabel = "inactive"

[[record]]
compound = "CNC(=S)NN=C1NCCCN1"
studytarget = "CAKI-1"
assignedlabel = "inactive"

[[record]]
compound = "CCCCCCc1cc(C(=O)Nc2ccc(Cl)cc2)nc(S)n1"
studytarget = "CAKI-1"
assignedlabel = "inactive"

[[record]]
compound = "COc1ccc(CCc2cc(OC)cc(OC)c2)cc1"
studytarget = "CAKI-1"
assignedlabel = "inactive"


(Q) Outcome? Cc1ccc(-c2nnc(CCCCCCCCc3nnc(-c4ccc(C)cc4O)n3N)n2N)c(O)c1
(A) inactive

(Q) Which outcome did this test record for the compound CCN(CC)CCCCC1CCN(CC(=O)N2c3ccccc3NC(=O)CC2C)CC1 (centres undefined) ?
(A) inactive

(Q) Each compound tested received a call. Report the one for CC(C)(C)c1cc(-c2ccc(-c3cc(C(C)(C)C)c(O)c(C(C)(C)C)c3)cc2)cc(C(C)(C)C)c1O .
(A) inactive

(Q) Dear colleague, could you share the recorded outcome for Cc1cc(=O)oc2c(CNC(Cc3ccccc3)C(=O)O)c(O)ccc12 (centres undefined) when you have a moment?
(A) inactive

(Q) Hey, what did the test say about COc1cc2c3c(c4ccc(OC)c(OC)c4c2cc1OC)CN1CCC[C@@H]1C3 ?
(A) active

(Q) Outcome logged for C#CC(O)/C=C/CCCCCCC#CC/C=C\CC#CCCCCCC/C=C/C(O)C#C (centres undefined) in this assay:
(A) inactive

(Q) Just curious, what result did CCCCOC(=O)C(=O)C(CCC(=O)c1ccc(C)cc1)C(=O)C=C(C)C (centres undefined) get here?
(A) inactive

(Q) Test call for this compound, please: COc1cccc(NC(=O)c2c(N)n[nH]c2SC)c1
(A) inactive

(Q) # fetch the recorded call for NCS(=O)(=O)O here
(A) inactive

(Q) Recorded test call requested for CC12CC(=O)Nc3ccccc3N1C(c1ccccc1)=NO2 (centres undefined)
(A) inactive

(Q) Given COc1ccc(NC(=S)N/N=C(\C)c2nc3cccnc3[nH]2)cc1 , state the outcome it received in this test.
(A) inactive

(Q) Given O=C1OC(c2ccc(Cl)cc2)(c2ccc(Cl)cc2)c2c1ccc1ccccc21 , state the outcome it received in this test.
(A) inactive

(Q) # outcome recorded in this test, key = CCCCCCCCCCCCCCCCOC(=O)c1cc(O)cc(C(=O)OCCCCCCCCCCCCCCCC)c1
(A) inactive

(Q) How did this test come out for O=C1Cc2c(-c3ccc(Cl)cc3)cc(-c3ccccc3)nc2-c2ccccc2N1 ?
(A) inactive

(Q) Assay outcome for CCOC(=O)C1=C(C)NC(=O)NC1c1ccc(N(CCCl)CCCl)cc1Cl (centres undefined) : what was it?
(A) inactive

(Q) How did this test come out for CCOC(=O)C(NC(=O)CC)(Nc1ccc(F)cc1F)C(F)(F)F (centres undefined) ?
(A) inactive
